# Experimental target: Kras and SOS1 (biotin-tagged human Kras loaded with GDP, His-tagged human SOS1) (Homo sapiens, UniProt P01116, G12D)
# Construct: made in house; host or cells: E. coli (stated for Kras only)
# Sequence (P01116 1-188 isoform P01116-2 G12D): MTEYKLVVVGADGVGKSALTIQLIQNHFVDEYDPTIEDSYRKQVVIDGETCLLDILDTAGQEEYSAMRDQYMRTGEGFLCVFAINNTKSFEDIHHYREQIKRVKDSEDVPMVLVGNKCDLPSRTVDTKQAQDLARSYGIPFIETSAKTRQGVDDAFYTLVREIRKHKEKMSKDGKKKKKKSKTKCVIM
# Method summary: Protein-protein interaction inhibition between Kras and SOS1 (KrasGl2D-SOS PPI) using AlphaScreen
# Type: binding
# Conditions used: AlphaScreen; biotin-tagged human Kras loaded with GDP, His-tagged human SOS1; read-out: KRAS G12D-SOS PPI IC50
Starred links: 1 amine or outer side, 2 acyl side, 3 side chain; linkers in the order of their positions; H or OH if unused. Positions of bridges follow the written chain, without caps; N, C: chain ends. Non-standard residues stand in square brackets, D forms with d. Residues, ends and D or L forms follow the SMILES beside them. *: point of attachment. hPhe(3-Cl-4-CF3) = N[C@@H](CCc1ccc(C(F)(F)F)c(Cl)c1)C(=O)O; 3Oxa8azabicyclo(3.2.1)octane = C1CC2COCC1N2*; NMeAbu(4,4,4-F3) = CN[C@@H](CC(F)(F)F)C(=O)O; NMePhe(4-Me) = CN[C@@H](Cc1ccc(C)cc1)C(=O)O; X42 = Cc1ccc(I)cc1C[C@H](N[*:1])C(=O)[*:2]; NMedβ3hAla = C[C@H](CC(=O)[*:2])N(C)[*:1]; NMeNva(5,5-F2) = CN[C@@H](CCC(F)F)C(=O)O; X22 = O=C([C@@H]1Cc2ccccc2N1[*:1])[*:2]; NMeY = CN[C@@H](Cc1ccc(O)cc1)C(=O)O; NMeCha = CN[C@@H](CC1CCCCC1)C(=O)O; NMeCba = CN[C@@H](CC1CCC1)C(=O)O; NMeChg = CN[C@H](C(=O)O)C1CCCCC1; NMeI = CC[C@H](C)[C@H](NC)C(=O)O; NMeD = CN[C@@H](CC(=O)O)C(=O)O; NMeL = CN[C@@H](CC(C)C)C(=O)O; Chg = N[C@H](C(=O)O)C1CCCCC1; NMeV = CN[C@H](C(=O)O)C(C)C; NMeAbu = CC[C@H](NC)C(=O)O; hSer = N[C@@H](CCO)C(=O)O; NMeA = CN[C@@H](C)C(=O)O; NMeAib = CNC(C)(C)C(=O)O; Nle = CCCC[C@H](N)C(=O)O; Piperidide = C1CCN(*)CC1; Ac5c = NC1(C(=O)O)CCCC1; Aze = O=C(O)[C@@H]1CCN1; X14 = CC1(C)CCN(*)C1; Sar = CNCC(=O)O
Endpoint name: pIC50
A value of pIC50 is the negative decimal logarithm of a concentration given in moles per litre.

Inquiry: Which pIC50 is listed for CC[C@H](C)[C@@H]1NC(=O)[C@H](CC(C)C)N(C)C(=O)C[C@@H](C(=O)N2CCC(C)(C)C2)NC(=O)[C@H]([C@@H](C)CC)N(C)C(=O)C2(CCCC2)NC(=O)[C@@H]2CCCN2C(=O)[C@H](CCc2ccc(C(F)(F)F)c(Cl)c2)NC(=O)CN(C)C(=O)[C@H](CC2CCCCC2)N(C)C(=O)CN(C)C(=O)CN(C)C1=O [Compound 1273] ([NMeL]I[Sar][Sar][NMeCha][Sar][hPhe(3-Cl-4-CF3)]P[Ac5c][NMeI]D-X14; lactam N-11) ?
Reply text: 8.14

Inquiry: Now the molecule CC[C@H](C)[C@@H]1NC(=O)[C@H](CC(C)C)N(C)C(=O)C[C@@H](C(=O)N2CCCCC2)N(C)C(=O)[C@H](CCC(F)F)N(C)C(=O)C2(CCCC2)NC(=O)[C@@H]2CCCN2C(=O)[C@H](CCc2ccc(C(F)(F)F)c(Cl)c2)NC(=O)CN(C)C(=O)[C@H](CC2CCCCC2)N(C)C(=O)CN(C)C(=O)CN(C)C1=O [Compound 1782] ([NMeL]I[Sar][Sar][NMeCha][Sar][hPhe(3-Cl-4-CF3)]P[Ac5c][NMeNva(5,5-F2)][NMeD]-Piperidide; lactam N-11)
Reply text: 8.66

Inquiry: Do the same for CC[C@H](C)[C@@H]1NC(=O)[C@H](CC(C)C)N(C)C(=O)C[C@@H](C(=O)N2CCCCC2)N(C)C(=O)[C@H](C(C)C)N(C)C(=O)C2(CCCC2)NC(=O)[C@@H]2CCCN2C(=O)[C@H](CCc2ccc(C(F)(F)F)c(Cl)c2)NC(=O)CN(C)C(=O)[C@H](CC2CCC2)N(C)C(=O)CN(C)C(=O)CN(C)C1=O [Compound 1124] ([NMeL]I[Sar][Sar][NMeCba][Sar][hPhe(3-Cl-4-CF3)]P[Ac5c][NMeV][NMeD]-Piperidide; lactam N-11) please
Reply text: 8.15

Inquiry: Cool, now CC[C@H](C)[C@@H]1NC(=O)[C@H](CC(C)C)N(C)C(=O)C[C@@H](C(=O)N2CCCCC2)N(C)C(=O)[C@H](C2CCCCC2)N(C)C(=O)C2(CCCC2)NC(=O)[C@@H]2Cc3ccccc3N2C(=O)[C@H](CCc2ccc(C(F)(F)F)c(Cl)c2)NC(=O)CN(C)C(=O)[C@H](CC2CCCCC2)N(C)C(=O)CN(C)C(=O)CN(C)C1=O [Compound 514] ([NMeL]I[Sar][Sar][NMeCha][Sar][hPhe(3-Cl-4-CF3)][X22][Ac5c][NMeChg][NMeD]-Piperidide; lactam N-11)
Reply text: 7.85

Inquiry: Follow-up item: COCC[C@@H]1NC(=O)[C@H](CC(C)C)N(C)C(=O)C[C@@H](C(=O)N2CCCCC2)N(C)C(=O)[C@H](C2CCCCC2)N(C)C(=O)C2(CCCC2)NC(=O)[C@@H]2CCCN2C(=O)[C@H](CCc2ccc(C(F)(F)F)c(Cl)c2)NC(=O)CN(C)C(=O)[C@H](CC2CCCCC2)N(C)C(=O)CN(C)C(=O)CN(C)C1=O [Compound 941] ([NMeL][hSer](Me)[Sar][Sar][NMeCha][Sar][hPhe(3-Cl-4-CF3)]P[Ac5c][NMeChg][NMeD]-Piperidide; lactam N-11)
Reply text: 8.48

Inquiry: Query CC(C)C[C@H]1C(=O)N[C@@H](C2CCCCC2)C(=O)N(C)CC(=O)N(C)CC(=O)N(C)[C@@H](CC2CCCCC2)C(=O)N(C)CC(=O)N[C@@H](CCc2ccc(C(F)(F)F)c(Cl)c2)C(=O)N2CCC[C@H]2C(=O)NC2(CCCC2)C(=O)N(C)[C@@H](C(C)C)C(=O)N(C)[C@H](C(=O)N2CCCCC2)CC(=O)N1C [Compound 281] ([NMeL][Chg][Sar][Sar][NMeCha][Sar][hPhe(3-Cl-4-CF3)]P[Ac5c][NMeV][NMeD]-Piperidide; lactam N-11) next
Reply text: 8.11

Inquiry: // query: CC[C@H](C)[C@@H]1NC(=O)[C@H](CC(C)C)N(C)C(=O)C[C@@H](C)N(C)C(=O)[C@H](CC(C)C)NC(=O)C(C)(C)N(C)C(=O)[C@H](CC(C)C)NC(=O)[C@H](CCc2ccc(C(F)(F)F)c(Cl)c2)NC(=O)CN(C)C(=O)[C@H](CC2CCCCC2)N(C)C(=O)[C@@H]2CCN2C(=O)[C@H](C)N(C)C1=O [Compound 886] (cyclo([Aze][NMeCha][Sar][hPhe(3-Cl-4-CF3)]L[NMeAib]L[NMedβ3hAla][NMeL]I[NMeA]))
Reply text: 7.00

Inquiry: Field entry: CCCC[C@@H]1NC(=O)[C@H](Cc2cc(I)ccc2C)NC(=O)CN(C)C(=O)[C@H](Cc2ccc(OC)cc2)N(C)C(=O)[C@@H]2CCN2C(=O)[C@H](C)N(C)C(=O)[C@H]([C@@H](C)CC)NC(=O)[C@H](CC)N(C)C(=O)C[C@@H](C(=O)N2CCCCC2)N(C)C(=O)[C@H](CC(C)C)NC(=O)C(C)(C)N(C)C1=O [Compound 1358] ([NMeAbu]I[NMeA][Aze][NMeY](Me)[Sar][X42][Nle][NMeAib]L[NMeD]-Piperidide; lactam N-11)
Reply text: 7.72

Inquiry: For CC[C@H](C)[C@@H]1NC(=O)[C@H](CC(F)(F)F)N(C)C(=O)C[C@@H](C(=O)N2C3CCC2COC3)N(C)C(=O)[C@H](C2CCCCC2)N(C)C(=O)C2(CCCC2)NC(=O)[C@@H]2CCCN2C(=O)[C@H](CCc2ccc(C(F)(F)F)c(Cl)c2)NC(=O)CN(C)C(=O)[C@H](Cc2ccc(C)cc2)N(C)C(=O)CN(C)C(=O)CN(C)C1=O [Compound 683] ([NMeAbu(4,4,4-F3)]I[Sar][Sar][NMePhe(4-Me)][Sar][hPhe(3-Cl-4-CF3)]P[Ac5c][NMeChg][NMeD]-{3Oxa8azabicyclo(3.2.1)octane}; lactam N-11) then?
Reply text: 9.21
